target: HIV-RT (Human immunodeficiency virus type 1 group M subtype B, UniProt P04585); construct: 1 unit/mL of HIV-RT (Worthington Biochemical Corp., Freehold, N.J.); purchased Worthington Biochemical Corp., Freehold, N.J; assay: Checkerboard combination of lavendamycin analogs with AZT-triphosphate in HIV-RT enzyme assay (Chou and Talalay); type: biochemical; settings: analogue 1.5 μM + AZT 0.01 μM, Trial 1
MEASUREMENT_KIND: Combination index
The reply should be a number, written without any unit.

Sample records with Combination index:
CC(=O)NC1=CC(=O)c2ccc(-c3nc(C(=O)O)cc4c3[nH]c3ccccc34)nc2C1=O : 0.90
CCCCOC(=O)c1cc2c([nH]c3ccccc32)c(-c2ccc3c(n2)C(=O)C(NC(=O)CCC)=CC3=O)n1 : 0.81

Let us move to another entry and its Combination index.
// compound CCCCCCCCOC(=O)c1cc2c([nH]c3ccccc32)c(-c2ccc3c(n2)C(=O)C(N)=CC3=O)n1 , assay HIV-RT (Human immunodeficiency virus type 1 group M subtype B, UniProt P04585), Combination index value: 0.70
